This document collects IC50 values reported for HDAC7 (Homo sapiens (Human), UniProt Q8WUI4).

compound | IC50
FC(F)c1nnc(-c2cnc(NC3(c4ccccc4)CC3)nc2)o1 | > 30 µM
CS(=O)(=O)N(CC(Nc1ncc(-c2nnc(C(F)F)o2)cn1)c1ccc(F)cc1)CC(F)(F)F (single isomer, unassigned) [118(+)] | > 30 µM
CS(=O)(=O)CC(Nc1ncc(-c2nnc(C(F)F)o2)cn1)c1ccc(F)cc1 (single isomer, unassigned) [161(+)] | > 30 µM

* * *

tested_system: HDAC6 (Homo sapiens (Human), UniProt Q9UBN7)
Sequence (Q9UBN7 whole entry): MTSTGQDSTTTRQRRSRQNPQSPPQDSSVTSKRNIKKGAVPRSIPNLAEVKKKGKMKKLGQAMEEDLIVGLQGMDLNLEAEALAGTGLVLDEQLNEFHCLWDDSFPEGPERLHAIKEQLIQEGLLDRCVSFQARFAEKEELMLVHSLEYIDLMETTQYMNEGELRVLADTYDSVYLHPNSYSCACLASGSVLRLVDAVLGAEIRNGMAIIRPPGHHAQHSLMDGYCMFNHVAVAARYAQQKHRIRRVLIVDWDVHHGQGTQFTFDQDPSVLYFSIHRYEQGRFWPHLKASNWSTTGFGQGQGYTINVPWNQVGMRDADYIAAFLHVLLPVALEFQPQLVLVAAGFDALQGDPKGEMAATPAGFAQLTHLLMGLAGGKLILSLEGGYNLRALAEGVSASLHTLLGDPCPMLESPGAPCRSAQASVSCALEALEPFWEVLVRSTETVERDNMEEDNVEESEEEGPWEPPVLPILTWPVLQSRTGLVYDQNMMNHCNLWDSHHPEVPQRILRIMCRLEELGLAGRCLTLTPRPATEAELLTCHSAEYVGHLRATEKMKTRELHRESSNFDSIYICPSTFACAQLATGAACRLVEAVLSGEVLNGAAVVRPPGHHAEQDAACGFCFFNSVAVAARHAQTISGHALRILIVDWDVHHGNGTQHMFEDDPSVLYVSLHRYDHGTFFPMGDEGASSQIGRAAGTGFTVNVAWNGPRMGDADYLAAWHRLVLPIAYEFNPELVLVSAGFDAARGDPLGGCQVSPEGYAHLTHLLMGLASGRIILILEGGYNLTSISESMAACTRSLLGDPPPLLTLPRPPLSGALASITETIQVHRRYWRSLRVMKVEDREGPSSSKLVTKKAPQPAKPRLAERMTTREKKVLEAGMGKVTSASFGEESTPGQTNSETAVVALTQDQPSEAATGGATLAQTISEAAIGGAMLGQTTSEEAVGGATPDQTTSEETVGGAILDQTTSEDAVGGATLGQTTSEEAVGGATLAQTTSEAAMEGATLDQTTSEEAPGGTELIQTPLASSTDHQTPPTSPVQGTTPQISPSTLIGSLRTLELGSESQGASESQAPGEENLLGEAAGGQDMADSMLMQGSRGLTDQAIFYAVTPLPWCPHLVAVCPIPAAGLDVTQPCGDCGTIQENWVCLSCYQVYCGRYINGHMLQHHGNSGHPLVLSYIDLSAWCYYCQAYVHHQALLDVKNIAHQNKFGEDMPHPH
procedure_text: HDAC6 enzymatic assay
Assay type: biochemical
details: selectivity profile; read-out: HDAC Enzyme IC50, HDAC 6

compound | IC50 / µM
Fc1ccc(C2(Nc3ncc(-c4nnc(C(F)F)o4)cn3)CC2)cc1 | 0.034
CS(=O)(=O)NCC(Nc1ncc(-c2nnc(C(F)F)o2)cn1)c1ccc(F)cc1 (single isomer, unassigned) [38(+)] | 0.015
CC(C)(Nc1ncc(-c2nnc(C(F)F)o2)cn1)c1ccc(F)cc1 | 0.038
Fc1ccc(C(CC(F)(F)F)Nc2ncc(-c3nnc(C(F)F)o3)cn2)cc1 (stereo not shown) | 0.036
FC(F)c1nnc(-c2cnc(NC3(c4ccccc4)CC3)nc2)o1 | 0.023
Fc1ccc(C2(Nc3ncc(-c4nnc(C(F)F)o4)cn3)CC2)c(Cl)c1 | 0.008
O=S(=O)(NCC(Nc1ncc(-c2nnc(C(F)F)o2)cn1)c1ccc(F)cc1)C1CC1 (stereo not shown) | 0.028

* * *

tested_system: HDAC6 (Homo sapiens (Human), UniProt Q9UBN7)
procedure_text: HDAC6 enzymatic assay
Type: biochemical
details: read-out: Human HDAC6 IC50
Entries annotated with measured IC50
measured_parameter: IC50 (nM)

compound | assay_value
FC(F)c1nnc(-c2cnc(NC3(c4cccnc4)CC3)nc2)o1 | 390
CCS(=O)(=O)N(C)CC(Nc1ncc(-c2nnc(C(F)F)o2)cn1)c1ccc(OC(F)F)cc1F (stereo not drawn) [148(+)] | 19
Fc1ccc(C(COCC(F)(F)F)Nc2ncc(-c3nnc(C(F)F)o3)cn2)c(F)c1 (single isomer, unassigned) [163(+)] | 110
CS(=O)(=O)NCC(Nc1ncc(-c2nnc(C(F)F)o2)cn1)c1ccc(OC(F)F)cc1F (single isomer, unassigned) [116(−)] | 260
FC(F)c1nnc(-c2cnc(NC3(c4ccc(Cl)cc4)CC3)nc2)o1 | 30
CC(=O)N(CC(Nc1ncc(-c2nnc(C(F)F)o2)cn1)c1ccc(F)cc1)CC(F)(F)F (single isomer, unassigned) [167(+)] | 110
CS(=O)(=O)N(CC(Nc1ncc(-c2nnc(C(F)F)o2)cn1)c1ccc(F)c(F)c1)CC(F)(F)F (single isomer, unassigned) [172(A)] | 320

* * *

tested_system: HDAC6 (Homo sapiens (Human), UniProt Q9UBN7)
procedure_text: HDAC6 enzymatic assay
Assay type: biochemical
details: read-out: Human HDAC6 IC50
pIC50: −log10 of the molar value.

compound | pIC50
Fc1cc(OC(F)F)ccc1C1(Nc2ncc(-c3nnc(C(F)F)o3)cn2)CC1 | 7.54
CC(=O)NCC(Nc1ncc(-c2nnc(C(F)F)o2)cn1)c1ccc(F)cc1 (racemic) [Example 78] | 7.33
CN(CC(Nc1ncc(-c2nnc(C(F)F)o2)cn1)c1ccc(F)cc1F)S(C)(=O)=O (single isomer, unassigned) [137(+)] | 7.39
CCS(=O)(=O)N(CC(Nc1ncc(-c2nnc(C(F)F)o2)cn1)c1ccc(OC(F)F)cc1F)CC(F)(F)F (stereo not drawn) [149(+)] | 6.70
CS(=O)(=O)NCC(Nc1ncc(-c2nnc(C(F)F)o2)cn1)C1CC1 (single isomer, unassigned) [123(−)] | 5.96
CS(=O)(=O)Nc1ccc(CC(Nc2ncc(-c3nnc(C(F)F)o3)cn2)c2ccc(F)cc2)cc1 (stereo not drawn) | 6.48
Fc1cccc(C2(Nc3ncc(-c4nnc(C(F)F)o4)cn3)CC2)c1F | 7.66
Fc1ccc(C2(Nc3ncc(-c4nnc(C(F)F)o4)cn3)CCC2)cc1 | 7.54
Fc1ccc(C(CC(F)(F)F)Nc2ncc(-c3nnc(C(F)F)o3)cn2)cc1 (single isomer, unassigned; (+)) [13(+)] | 7.52
CS(=O)(=O)N(CC(Nc1ncc(-c2nnc(C(F)F)o2)cn1)c1ccc(OC(F)(F)F)cc1)CC(F)(F)F (stereo not drawn) [154(+)] | 6.59
CS(=O)(=O)N(CC(Nc1ncc(-c2nnc(C(F)F)o2)cn1)c1ccc(F)cc1)CC(F)(F)F (single isomer, unassigned) [118(+)] | 7.54
Fc1ccc(C2(Nc3ncc(-c4nnc(C(F)F)o4)cn3)CC2)c(F)c1 | 8.05
CC(Nc1ncc(-c2nnc(C(F)F)o2)cn1)c1ccccc1 (stereo not drawn) | 7.24
Fc1ccc(C2(Nc3ncc(-c4nnc(C(F)F)o4)cn3)CC2)c(C(F)(F)F)c1 | 7.06
FC(F)c1nnc(-c2cnc(OC3(c4ccccc4)CC3)nc2)o1 | 6.68
FC(F)c1nnc(-c2cnc(NC3(c4cccc(Cl)c4)CC3)nc2)o1 | 7.82
CN(CC(Nc1ncc(-c2nnc(C(F)F)o2)cn1)c1ccc(OC(F)F)cc1F)S(=O)(=O)C1CC1 (stereo not drawn) [151(+)] | 7.07
O=C1CCCN1CC(Nc1ncc(-c2nnc(C(F)F)o2)cn1)c1ccc(F)cc1 (single isomer, unassigned) [177(+)] | 6.96
